These measurements were taken from patent EP4427758A1.

# PROTOCOL TEXT: NBT assay of antioxidant activity (superoxide scavenging)
# Assay type: biochemical
# EXPERIMENTAL CONTEXT: NBT Test (O2^-•); read-out: Scavenging activity of the free radicals IC50
MEASURED PARAMETER: IC50
The answer should read as a number with its unit following.

Could you tell me which IC50 is on file for O=C1O[C@H]([C@@H](O)CO)C(O)=C1O ?
665 µM
